Overview of recorded EC50 for various binders
# Assay System: T1, human SIRPαBIT expressed on cells (human, UniProt P78324 31-504)
# T1 construct: endogenous on U937 cells or transiently expressed on ExpiCHO-S cells; in the SHP-1 assay a ProLink-tagged form on Jurkat cells; also called huSIRPαBIT; U937 cells (huSIRPαBIT)
# T1 sequence (P78324 31-504 limits assumed): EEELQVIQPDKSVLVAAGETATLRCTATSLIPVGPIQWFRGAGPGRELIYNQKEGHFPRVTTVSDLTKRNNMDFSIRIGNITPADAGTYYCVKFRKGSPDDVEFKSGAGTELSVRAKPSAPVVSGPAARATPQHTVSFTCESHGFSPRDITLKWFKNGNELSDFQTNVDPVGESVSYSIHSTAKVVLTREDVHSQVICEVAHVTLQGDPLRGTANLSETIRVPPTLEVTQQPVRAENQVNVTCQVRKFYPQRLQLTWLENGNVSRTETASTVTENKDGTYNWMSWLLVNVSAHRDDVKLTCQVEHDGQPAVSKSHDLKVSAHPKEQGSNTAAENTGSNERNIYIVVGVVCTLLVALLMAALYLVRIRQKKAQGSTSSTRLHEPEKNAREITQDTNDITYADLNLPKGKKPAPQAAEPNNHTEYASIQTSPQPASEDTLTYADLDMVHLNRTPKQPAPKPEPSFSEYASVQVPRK
# Test Protocol: flow cytometry, ExpiCHO-S cells
Write the value in µg/mL as a bare number.

(Q) GET /values?readout=EC50&item= 3F9-LALA (3F9 mouse-human chimeric IgG1-kappa, LALA) (antibody, V domains shown) VH: EVKLVESGGGLVKPGGSLKLSCAASGFTFSSYAMSWVRQTPEKRLEWVATISDYGGSYTYYPDSVKGRFTISRDNAKYTLYLQMSSLRSEDTALYYCARPPYDDYYGGFAYWGQGTLVTVSA VL: DIVLTQSPASLAVSLGQRATISCRASKSVSSSGYSYMHWYQQKPGQPPKLLIYLASNLESGVPARFSGSGSGTDFTLNIHPVEEEDAATYYCQHNRELPCTFGGGTKLEIKR
(A) 1.88

(Q) Look up EC50 for this binder: AB115-LALA (AB115 human IgG1-kappa, LALA) (antibody, V domains shown) VH: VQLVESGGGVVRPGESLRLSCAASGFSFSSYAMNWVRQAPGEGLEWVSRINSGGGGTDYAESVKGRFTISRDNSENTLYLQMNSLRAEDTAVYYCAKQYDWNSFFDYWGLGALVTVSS VL: ETVLTQSPATLSVSPGERATLSCRASQTVGSKLAWHQQKPGQAPRLLIYDATNRATGISDRFSGSGSGTDFTLTISSLQTEDSAVYYCQQYYYWPPYRFGGGTKVEIKR
(A) 0.48

(Q) Suppose we examine the binder humanized anti-SIRPα antibody 6 (antibody, human IgG1, kappa, L234A L235A, V domains shown, human IgG1 LALA, kappa; also called mAb 6) VH: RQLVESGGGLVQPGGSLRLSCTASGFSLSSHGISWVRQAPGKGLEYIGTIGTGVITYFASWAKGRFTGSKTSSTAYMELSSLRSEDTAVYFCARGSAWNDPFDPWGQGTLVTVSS VL: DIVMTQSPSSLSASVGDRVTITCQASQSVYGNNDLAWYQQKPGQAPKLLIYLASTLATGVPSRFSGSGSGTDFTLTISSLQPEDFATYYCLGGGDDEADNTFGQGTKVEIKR ; what EC50 value has been reported?
(A) 0.01

(Q) Fill blank: measured EC50 of the binder 7H9-LALA (7H9 mouse-human chimeric IgG1-kappa, LALA) (antibody, V domains shown) VH: DVQLQESGPGLVKPSQSLSLTCTVTGFSISRGYDWHWIRHFPGNILEWMGYITYSGISNYNPSLKSRISITHDTSKNHFFLRLNSVTAEDTATYYCARGGGAWFTYWGQGTLVTVSA VL: DIVMTQSPATLSVTPGDRVSLSCRASQSISDSLHWYHQKSHESPRLLIKYASQSISGIPSRFSAGGSGSDFTLTINSVEPEDVGVYYCQNGHSLPWTFGGGTKLEIKR is ____.
(A) 0.52

(Q) Entry AB3-LALA (AB3 chicken-human chimeric IgG1-kappa, LALA) (antibody, V domains shown) VH: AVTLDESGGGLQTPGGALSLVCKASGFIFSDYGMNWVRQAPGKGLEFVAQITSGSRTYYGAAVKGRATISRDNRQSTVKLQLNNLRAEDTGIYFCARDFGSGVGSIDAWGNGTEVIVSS VL: ALTQPASVSANLGGTVKITCSGSRGRYGWYQQRSPGSAPVTVIYRDNQRPSNIPSRFSSSTSGSTSTLTITGVQADDESVYFCGSYDGSIDIFGAGTTLTVLR has what EC50?
(A) 0.13
